Taken from PubChem BioAssay.

experiment: Restrictive medium S. cerevisiae growth inhibition, OD615, pilot screen of yeast lifespan reduction project, restrictive growth control (AID 706); conditions: OD615, 48 h, at 10 µM;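 further: modified DeaD lifespan yeast strain shifted to restrictive glucose medium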
Active and inactive are the calls of the source.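 How the source made its calls: active means growth inhibition above a set limit, 3 SD over mean compound inhibition, in both replicates (cut at about 43% in these data); inconclusive means above the limit in only one replicate; inactive means at or below the limit in both replicates.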
Choose one outcome from this list and give only that: active, inactive

-- ask What classification did C=CCOc1cccc(C2c3c(oc4ccc(F)cc4c3=O)C(=O)N2CCCN2CCOCC2)c1 (stereo not drawn) end up with in this test?
-- reply inactive

-- ask What classification did Clc1ccc(CSc2nnc(-c3ccccn3)n2Cc2ccco2)c(Cl)c1 end up with in this test?
-- reply inactive

-- ask What classification did Cn1c(NC(=O)C(C)(C)Oc2ccc(Cl)cc2)cc(=O)n(C)c1=O end up with in this test?
-- reply inactive

-- ask What classification did O=C(Nc1ccc(Oc2ccccc2)cc1)c1cnc2n(c1=O)CCS2 end up with in this test?
-- reply inactive

-- ask What classification did O=C(Cn1cc2c(n1)CCCC2)Nc1ccccc1Cl end up with in this test?
-- reply inactive

-- ask What classification did Cc1ccc2oc(=O)c3cc(C(=O)NCCN4CCN(C)CC4)sc3c2c1 end up with in this test?
-- reply inactive

-- ask What classification did C=CCn1c(SCCN2CCCCC2)nc2c1c(=O)[nH]c(=O)n2C end up with in this test?
-- reply inactive

-- ask What classification did Brc1ccc(-c2nnc3sc(CNC4CCCC4)cn23)cc1 end up with in this test?
-- reply inactive

-- ask What classification did CCOCCn1c(SCCc2ccccc2)nc2c1c(=O)[nH]c(=O)n2C end up with in this test?
-- reply inactive

-- ask What classification did NS(=O)(=O)c1ccc(S(=O)(=O)NCCc2ccccc2)cc1 end up with in this test?
-- reply inactive

-- ask What classification did Cc1ccc(C(=O)CSC2=NC(N)=C(C#N)C3(CCCCC3)C2C(N)=O)cc1 (stereo not drawn) end up with in this test?
-- reply active

-- ask What classification did CCCC(=O)Nc1ccccc1-c1nnc(SC)[nH]c1=O end up with in this test?
-- reply inactive

-- ask What classification did O=C(CN1CC(c2ccccc2)CC1=O)Nc1ccc2c(c1)OCO2 (stereo not drawn) end up with in this test?
-- reply inactive

-- ask What classification did CC1Cc2nc(SCC(=O)NCc3ccco3)n(Cc3ccccc3)c(=O)c2S1 (stereo not drawn) end up with in this test?
-- reply inactive

-- ask What classification did CCN1CCN(CC(=O)Nc2ccc(C)cc2C)C(=O)C1=O end up with in this test?
-- reply inactive

-- ask What classification did CC(=O)CC(=O)Nc1cccc2c1CCCC2 end up with in this test?
-- reply inactive

-- ask What classification did COc1ccc(C(=O)Nc2cc(-c3nn4c(C)nnc4s3)ccc2C)cc1 end up with in this test?
-- reply inactive

-- ask What classification did Cc1ccc2sc(NC(=O)CN3C(=O)CCC3=O)nc2c1C end up with in this test?
-- reply inactive

-- ask What classification did CCOc1ccc(NS(=O)(=O)c2ccc3[nH]c(=O)oc3c2)cc1 end up with in this test?
-- reply inactive

-- ask What classification did CCOc1ccc(C(=O)Nc2cc(=O)n(C)c(=O)n2C)cc1 end up with in this test?
-- reply inactive

-- ask What classification did O=C1c2ccccc2C(=O)N1CCc1nc2ccccc2c(=O)n1Cc1ccco1 end up with in this test?
-- reply inactive

-- ask What classification did C=CCSc1nnc2c(n1)[nH]c1c(C)cccc12 end up with in this test?
-- reply inactive

-- ask What classification did Cn1c(C(=O)NCCN2CCCCCC2)cc2c(=O)n(C)c3ccccc3c21 end up with in this test?
-- reply inactive
